- ASSAY SYSTEM: β1 adrenergic receptor (β1AR*) (Meleagris gallopavo, UniProt P07700, A282L/F327A/F338M/R68S/Y227A)
- METHOD NOTES: biochemical
PROPERTY LABEL: log10(Kd) (log10 of the value in µM)
Record value = log10 of Kd given in µM.

q: May I ask what log10(Kd) has been recorded for COc1ccc(OC)c(C(O)C(C)NC(C)(C)C)c1 (centres unmarked) [butoxamine] ?
a: 0.71

Please state log10(Kd) for every compound in the list that follows.
1. NCCc1c[nH]c2ccc(O)cc12 [serotonin]
2. C[C@@H](CO)NC(=O)[C@@H]1C=C2c3cccc4[nH]cc(c34)C[C@H]2N(C)C1 [ergonovine]
3. CC(C)NCC(O)COc1ccc(CC(N)=O)cc1 (centres unmarked) [atenolol]
4. CC[C@@H](CO)NC(=O)[C@@H]1C=C2c3cccc4[nH]cc(c34)C[C@H]2N(C)C1 [methylergonovine]

a:
1: 1.15; 2: 1.92; 3: 1.69; 4: 1.70
